Just for reference, patent US9834518B2 is where these values come from.

Molecular target: human EGFR (native sequence) (Homo sapiens, UniProt P00533)
Sequence (P00533 25-1210): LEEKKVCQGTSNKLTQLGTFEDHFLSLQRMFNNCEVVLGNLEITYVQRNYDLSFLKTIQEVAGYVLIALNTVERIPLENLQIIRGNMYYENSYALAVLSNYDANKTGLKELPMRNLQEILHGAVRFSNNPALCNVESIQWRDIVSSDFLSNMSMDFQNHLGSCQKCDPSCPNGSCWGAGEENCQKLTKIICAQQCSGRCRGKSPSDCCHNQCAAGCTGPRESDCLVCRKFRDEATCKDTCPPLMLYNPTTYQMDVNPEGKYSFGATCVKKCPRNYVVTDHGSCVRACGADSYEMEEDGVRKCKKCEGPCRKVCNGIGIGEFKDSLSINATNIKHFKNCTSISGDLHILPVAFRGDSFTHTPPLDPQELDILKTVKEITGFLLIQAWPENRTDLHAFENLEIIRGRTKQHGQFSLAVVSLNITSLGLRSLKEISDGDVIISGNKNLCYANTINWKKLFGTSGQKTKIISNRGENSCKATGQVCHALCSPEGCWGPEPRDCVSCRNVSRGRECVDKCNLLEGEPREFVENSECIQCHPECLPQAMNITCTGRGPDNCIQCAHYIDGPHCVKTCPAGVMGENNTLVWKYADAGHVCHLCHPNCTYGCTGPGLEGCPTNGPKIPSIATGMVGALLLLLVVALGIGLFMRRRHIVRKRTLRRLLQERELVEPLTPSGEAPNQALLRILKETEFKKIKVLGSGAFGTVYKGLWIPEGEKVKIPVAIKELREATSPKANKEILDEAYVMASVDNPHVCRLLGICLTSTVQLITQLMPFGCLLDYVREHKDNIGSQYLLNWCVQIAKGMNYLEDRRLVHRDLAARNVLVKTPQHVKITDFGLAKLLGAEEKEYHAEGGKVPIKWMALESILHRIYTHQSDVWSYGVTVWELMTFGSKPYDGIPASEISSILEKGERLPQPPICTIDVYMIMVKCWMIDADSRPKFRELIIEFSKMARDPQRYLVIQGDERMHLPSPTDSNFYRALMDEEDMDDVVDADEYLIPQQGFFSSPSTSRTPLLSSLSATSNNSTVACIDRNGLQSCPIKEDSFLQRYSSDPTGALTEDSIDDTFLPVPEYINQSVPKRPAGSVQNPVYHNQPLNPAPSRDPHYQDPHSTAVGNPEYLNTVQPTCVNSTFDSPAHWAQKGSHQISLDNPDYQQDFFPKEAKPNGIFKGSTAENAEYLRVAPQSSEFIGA
Assay: Kinase inhibition, human EGFR (native sequence)
Format: biochemical
Details: 10 μM ATP; 10 pt curves, 3 μM top concentration (singlicates)
READOUT LABEL: IC50

INSERT INTO measurements (compound_structure_string, assay_result) VALUES
  ('C=CC(=O)N(CCCN(C)C)c1ccc(OC)c(Nc2ncc(Cl)c(Nc3ccccc3P(C)(C)=O)n2)c1', '≥ 250 nM'),
  ('C=CC(=O)Nc1ccc(Nc2ncc(Cl)c(Nc3ccccc3P(C)(C)=O)n2)c(OC)c1', '≥ 250 nM'),
  ('C#CC(=O)Nc1ccc(OC)c(Nc2ncc(Cl)c(Nc3ccccc3P(C)(C)=O)n2)c1', '< 51 nM'),
  ('COc1cc(F)c(NC(=O)/C=C/CN(C)C)cc1Nc1ncc(Cl)c(Nc2ccccc2P(C)(C)=O)n1', '101 to 250 nM');

* * *

Recorded IC50, one value per entry.
Target: EGFR bearing the L858R/T790M double mutation (Homo sapiens, UniProt P00533, L858R/T790M)
Sequence (P00533 25-1210 T790M/L858R): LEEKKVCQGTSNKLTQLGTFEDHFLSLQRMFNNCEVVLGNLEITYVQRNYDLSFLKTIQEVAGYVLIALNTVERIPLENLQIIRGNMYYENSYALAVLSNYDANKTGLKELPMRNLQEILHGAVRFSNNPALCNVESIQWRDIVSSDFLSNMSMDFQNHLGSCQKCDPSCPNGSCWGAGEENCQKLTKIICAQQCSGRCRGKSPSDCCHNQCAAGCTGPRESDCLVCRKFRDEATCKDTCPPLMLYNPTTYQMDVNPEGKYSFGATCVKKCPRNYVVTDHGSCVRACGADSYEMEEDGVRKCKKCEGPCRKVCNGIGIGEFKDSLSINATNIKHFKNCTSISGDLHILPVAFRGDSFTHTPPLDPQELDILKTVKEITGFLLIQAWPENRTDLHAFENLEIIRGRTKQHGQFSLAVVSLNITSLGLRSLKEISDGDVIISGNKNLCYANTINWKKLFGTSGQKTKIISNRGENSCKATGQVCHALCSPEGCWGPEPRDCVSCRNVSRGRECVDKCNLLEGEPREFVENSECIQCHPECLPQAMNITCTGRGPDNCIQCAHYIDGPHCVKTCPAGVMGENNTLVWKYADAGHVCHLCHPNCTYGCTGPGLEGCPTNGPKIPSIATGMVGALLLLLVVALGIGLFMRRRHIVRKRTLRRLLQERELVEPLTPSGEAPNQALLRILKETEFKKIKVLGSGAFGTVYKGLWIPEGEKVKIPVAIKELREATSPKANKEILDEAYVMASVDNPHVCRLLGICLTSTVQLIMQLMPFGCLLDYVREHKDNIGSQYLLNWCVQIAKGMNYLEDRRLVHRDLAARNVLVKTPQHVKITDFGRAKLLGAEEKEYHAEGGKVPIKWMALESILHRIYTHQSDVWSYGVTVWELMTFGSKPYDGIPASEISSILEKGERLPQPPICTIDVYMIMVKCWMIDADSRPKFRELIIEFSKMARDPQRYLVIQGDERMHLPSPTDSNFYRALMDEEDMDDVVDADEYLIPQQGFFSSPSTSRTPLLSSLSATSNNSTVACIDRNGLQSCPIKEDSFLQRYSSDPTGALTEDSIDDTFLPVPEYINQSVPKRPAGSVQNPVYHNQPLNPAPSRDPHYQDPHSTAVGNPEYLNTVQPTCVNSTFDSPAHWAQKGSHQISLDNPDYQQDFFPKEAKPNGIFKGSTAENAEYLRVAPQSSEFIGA
Experiment: Kinase inhibition, EGFR L858R/T790M
Type: biochemical
Details: 10 μM ATP; 10 pt curves, 3 μM top concentration (singlicates)
READOUT LABEL: IC50

INSERT INTO measurements (compound, assay_result) VALUES
  ('C=CS(=O)(=O)Nc1ccc(OC)c(Nc2ncc(Cl)c(Nc3ccccc3P(C)(C)=O)n2)c1', '< 51 nM'),
  ('C=CC(=O)Nc1ccc(OC)c(Nc2ncc(C)c(Nc3ccccc3P(C)(C)=O)n2)c1', '< 51 nM'),
  ('C=CC(=O)Nc1cc(Nc2ncc(Cl)c(Nc3ccc(F)cc3P(C)(C)=O)n2)c(OC)cc1F', '< 51 nM'),
  ('C=CP(C)(=O)Cc1ccc(OC)c(Nc2ncc(Cl)c(Nc3ccccc3P(C)(C)=O)n2)c1 (stereo not drawn)', '≥ 250 nM'),
  ('C=CC(=O)Nc1cc(Nc2ncc(Cl)c(Nc3ccccc3P(C)(C)=O)n2)c(OC)cc1CCN(CC)CC', '< 51 nM'),
  ('COc1ccc(NC(=O)/C=C/CN(C)C)cc1Nc1ncc(Cl)c(Nc2ccccc2P(C)(C)=O)n1', '< 51 nM'),
  ('COc1ccc(NC(=O)C=C(C)C)cc1Nc1ncc(Cl)c(Nc2ccccc2P(C)(C)=O)n1', '≥ 250 nM'),
  ('C=CC(=O)Nc1cc(Nc2ncc(Cl)c(Nc3ccccc3P(=O)(CC)CC)n2)c(OC)cc1F', '< 51 nM'),
  ('C=CC(=O)Nc1cc(Nc2ncc(Cl)c(Nc3ccccc3P(C)(C)=O)n2)c(OC)cc1OCCN(C)C', '< 51 nM'),
  ('COc1ccc(NC(=O)C2(C)CO2)cc1Nc1ncc(Cl)c(Nc2ccccc2P(C)(C)=O)n1 (stereo not drawn)', '< 51 nM'),
  ('C=CC(=O)N[C@H]1CCC[C@@H](Nc2ncc(Cl)c(Nc3ccccc3P(C)(C)=O)n2)C1 (stereo in doubt)', '≥ 250 nM'),
  ('C=CC(=O)Nc1ccc(OC)c(Nc2ncc(Cl)c(Nc3ccccc3P(C)(C)=O)n2)c1', '< 51 nM');

* * *

Target: human EGFR (native sequence) (Homo sapiens)
Assay: Kinase inhibition, human EGFR (native sequence)
Format: biochemical
Details: 10 μM ATP; 10 pt curves, 3 μM top concentration (singlicates)
Recorded IC50 values for a group of compounds are listed next.
READOUT LABEL: IC50

INSERT INTO measurements (compound, assay_result) VALUES
  ('C=CC(=O)Nc1ccc(OCC)c(Nc2ncc(Cl)c(Nc3ccccc3P(C)(C)=O)n2)c1 [Example 47]', '< 51 nM'),
  ('C=CC(=O)Nc1cc(Nc2ncc(Cl)c(Nc3ccccc3P(=O)(CC)CC)n2)c(OC)cc1OCCN(C)C [Example 52]', '< 51 nM'),
  ('COc1ccc(NC(=O)/C=C/CN2CCOCC2)cc1Nc1ncc(Cl)c(Nc2ccccc2P(C)(C)=O)n1 [Example 3]', '≥ 250 nM'),
  ('C=CC(=O)Nc1cc(Nc2ncc(Cl)c(Nc3ccccc3P(C)(C)=O)n2)c(OC)cc1N(C)CCN(C)CCOC [Example 38]', '< 51 nM');
